Biological target: IDO1 (Homo sapiens)
Construct: endogenous in cells; host or cells: HeLa cells (American Type Culture Collection), induced with human recombinant IFN-γ
Assay: HeLa Cell-Based IDO1 Kyn (Kynurenine) Production Assay
Conditions: HeLa cells, IDO1 induced by IFN-γ, 0.4 mM L-Trp, 48 hours incubation, Kyn absorbance at 480 nm; read-out: Cell-Based EC50 (nM) Hela IDO1
Quantity: EC50 (nM)

1. C[C@@H](c1nc2ccc(C(=O)NC3CCCC3)cc2[nH]1)[C@H]1CC[C@@H](c2ccnc3ccc(F)cc32)CC1 [Example 5]
2. C[C@@H](c1nc2ccc(C(=O)Nc3ccccc3)cc2[nH]1)[C@H]1CC[C@@H](c2ccnc3ccc(F)cc32)CC1 [Example 14]
Asked: Of the pair 1 and 2 , name the member with the lesser recorded EC50. Write down the label attached to your selection.
Given back: 2
(2: 14.4 nM, 1: 38.8 nM)

###

System: plasma protein
Test: Plasma Protein Binding Assay (equilibrium dialysis)
Assay type: in vitro ADME
Settings: 50% plasma, Human plasma, 37° C., read-out: Plasma Protein Binding assay (fu %) Human
Quantity: fraction unbound at 6 h, 5 μM

CNC(=O)c1cc2[nH]c([C@@H](C)[C@H]3CC[C@@H](c4ccnc5ccc(F)cc54)CC3)nc2cn1 [Example 23a] | 0.0072

A. CNC(=O)c1cc2[nH]c([C@H](C)[C@H]3CC[C@@H](c4ccnc5ccc(F)cc54)CC3)nc2cn1 [Example 23b]
B. C[C@@H](c1nc2cc(C(=O)NC3CCC3)ccc2[nH]1)[C@H]1CC[C@@H](c2ccnc3ccc(F)cc32)CC1
C. C[C@@H](c1nc2c(F)c(F)c(F)cc2[nH]1)[C@H]1CC[C@@H](c2ccnc3ccc(F)cc32)CC1 [Example 29, reference compound]
Asked: Please list these molecules in decreasing order of fraction unbound at 6 h, 5 μM. // list labels; follow requested order
Given back: A, B, C
(A: 0.0053, B: 0.002, C: 0.0002)

a. C[C@@H](c1nc2cc(C(=O)NC3CC3)ncc2[nH]1)[C@H]1CC[C@@H](c2ccnc3ccc(F)cc32)CC1 [Example 22b]
b. COC(=O)c1ccc2[nH]c([C@H](C)[C@H]3CC[C@@H](c4ccnc5ccc(F)cc54)CC3)nc2c1 [Example 28b, reference compound]
Asked: Returns: the argument ( a or b ) having the larger fraction unbound at 6 h, 5 μM. Refer to your chosen entry by its label in the reply.
Given back: a

###

Biological target: IDO1 (Homo sapiens)
Construct: endogenous in cells; host or cells: HeLa cells (American Type Culture Collection), induced with human recombinant IFN-γ
Test: HeLa Cell-Based IDO1 Kyn (Kynurenine) Production Assay
Conditions: HeLa cells, IDO1 induced by IFN-γ, 0.4 mM L-Trp, 48 hours incubation, Kyn absorbance at 480 nm; read-out: Cell-Based EC50 (nM) Hela IDO1
Quantity: EC50 (nM)

C[C@@H](c1nc2ccc(C(=O)NC3CC3)cc2[nH]1)[C@H]1CC[C@@H](c2ccnc3ccc(F)cc32)CC1 | 12.6

1. C[C@@H](c1nc2cc(C(=O)NC3CC3)cnc2[nH]1)[C@H]1CC[C@@H](c2ccnc3ccc(F)cc32)CC1
2. Cc1cc(C(=O)NC2CCC2)cc2nc([C@@H](C)[C@H]3CC[C@@H](c4ccnc5ccc(F)cc54)CC3)[nH]c12 [Example 10a]
3. CC(c1nc2ccc(C(=O)NC3COC3)cc2[nH]1)C1CCC(c2ccnc3ccc(F)cc23)CC1 (stereo not drawn)
4. COC1CCC(NC(=O)c2ccc3nc([C@H](C)[C@H]4CC[C@@H](c5ccnc6ccc(F)cc65)CC4)[nH]c3c2)CC1 (stereo partly drawn)
Asked: Order the items by recorded EC50; the first position goes to the largest value. Provide the ranking by listing each label in its place in the requested order.
Given back: 2, 4, 3, 1
(2: 788 nM, 4: 122 nM, 3: 84.1 nM, 1: 24.9 nM)

###

Biological target: IDO1 (Homo sapiens, UniProt P14902)
Construct: endogenous in cells; host or cells: HeLa cells (American Type Culture Collection), induced with human recombinant IFN-γ
Sequence (P14902 whole entry): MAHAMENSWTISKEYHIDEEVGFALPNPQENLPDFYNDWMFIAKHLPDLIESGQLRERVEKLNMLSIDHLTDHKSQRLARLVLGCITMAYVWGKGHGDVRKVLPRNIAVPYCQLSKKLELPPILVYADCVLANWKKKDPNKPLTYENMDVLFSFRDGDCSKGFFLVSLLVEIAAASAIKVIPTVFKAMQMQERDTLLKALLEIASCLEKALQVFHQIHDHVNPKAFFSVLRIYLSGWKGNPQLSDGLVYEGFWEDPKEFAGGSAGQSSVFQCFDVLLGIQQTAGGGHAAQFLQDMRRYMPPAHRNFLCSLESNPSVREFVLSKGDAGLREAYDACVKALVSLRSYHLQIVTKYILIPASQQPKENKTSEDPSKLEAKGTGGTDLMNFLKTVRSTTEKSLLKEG
Assay: HeLa Cell-Based IDO1 Kyn (Kynurenine) Production Assay
Quantity: EC50 (nM)
Please reply with the bare figure in nM and do not write the unit itself.

Asked: Using the record for C[C@@H](c1nc2cc(F)c(F)cc2[nH]1)[C@H]1CC[C@@H](c2ccnc3ccc(F)cc32)CC1 [Example 27b, reference compound] , report its EC50.
Given back: 0.42

###

Target: IDO1 (Homo sapiens)
Construct: endogenous in cells; host or cells: HeLa cells (American Type Culture Collection), induced with human recombinant IFN-γ
Assay: HeLa Cell-Based IDO1 Kyn (Kynurenine) Production Assay
Conditions: HeLa cells, IDO1 induced by IFN-γ, 0.4 mM L-Trp, 48 hours incubation, Kyn absorbance at 480 nm; read-out: Cell-Based EC50 (nM) Hela IDO1
Quantity: EC50 (nM)

Check out these entries, answers already filled in.
COCCNC(=O)c1ccc2nc([C@H](C)[C@H]3CC[C@H](c4ccnc5ccc(F)cc54)CC3)[nH]c2c1 | 959
CNC(=O)c1cc2[nH]c(C(C)[C@H]3CC[C@@H](c4ccnc5ccc(F)cc54)CC3)nc2cn1 (mixture of isomers) | 7.12
CC(c1nc2cc3c(=O)[nH]cnc3cc2[nH]1)[C@H]1CC[C@@H](c2ccnc3ccc(F)cc32)CC1 (stereo partly drawn) | 82.4
CNC(=O)c1cc2[nH]c([C@H](C)[C@H]3CC[C@@H](c4ccnc5ccc(F)cc54)CC3)nc2cn1 [Example 23b] | 3.83
COCCNC(=O)c1ccc2nc([C@H](C)[C@H]3CC[C@@H](c4ccnc5ccc(F)cc54)CC3)[nH]c2c1 | 62.9

I. C[C@H](c1nc2cnc(C(=O)NC3CC3)cc2[nH]1)[C@H]1CC[C@@H](c2ccnc3ccc(F)cc32)CC1 [Example 22a]
II. Cc1cc(C(=O)NC2CCC2)cc2nc([C@H](C)[C@H]3CC[C@@H](c4ccnc5ccc(F)cc54)CC3)[nH]c12 [Example 10b]
Asked: Choose between I and II : whose measured EC50 value is numerically larger? Please reply using the label of the selected record.
Given back: I

a. COC1CCC(NC(=O)c2ccc3nc([C@H](C)[C@H]4CC[C@H](c5ccnc6ccc(F)cc65)CC4)[nH]c3c2)CC1 (stereo partly drawn)
b. CCNC(=O)c1cc2nc([C@H](C)[C@H]3CC[C@@H](c4ccnc5ccc(F)cc54)CC3)[nH]c2cn1
c. CC(c1nc2cnc(C(=O)NC3CC3)cc2[nH]1)[C@H]1CC[C@@H](c2ccnc3ccc(F)cc32)CC1 (mixture of isomers)
Asked: List the 3 entries from lowest EC50 to highest EC50 value. The response must list the labels following the requested ordering.
Given back: b, c, a
(b: 0.77 nM, c: 3.12 nM, a: 193 nM)

1. CC(c1nc2c(F)c(F)c(C(=O)NC3CC3)cc2[nH]1)[C@H]1CC[C@@H](c2ccnc3ccc(F)cc32)CC1 (stereo partly drawn)
2. CC(C)NC(=O)c1ccc2nc([C@H](C)[C@H]3CC[C@@H](c4ccnc5ccc(F)cc54)CC3)[nH]c2c1
3. COC(=O)c1ccc2[nH]c([C@H](C)[C@H]3CC[C@@H](c4ccnc5ccc(F)cc54)CC3)nc2c1 [Example 28b, reference compound]
4. CNC(=O)c1cc2[nH]c([C@@H](C)[C@H]3CC[C@@H](c4ccnc5ccc(F)cc54)CC3)nc2cn1 [Example 23a]
Asked: # sort list by recorded EC50, greatest to least Please express your ranking as an ordered list of the labels.
Given back: 4, 2, 1, 3

###

Target: IDO1 (Homo sapiens)
Construct: endogenous in cells; host or cells: HeLa cells (American Type Culture Collection), induced with human recombinant IFN-γ
Test: HeLa Cell-Based IDO1 Kyn (Kynurenine) Production Assay
Details: HeLa cells, IDO1 induced by IFN-γ, 0.4 mM L-Trp, 48 hours incubation, Kyn absorbance at 480 nm; read-out: Cell-Based EC50 (nM) Hela IDO1
Quantity: EC50 (nM)

# annotated cases, reported EC50 shown
C[C@@H](c1nc2cc(C(=O)NC3CC3)ncc2[nH]1)[C@H]1CC[C@@H](c2ccnc3ccc(F)cc32)CC1 [Example 22b] | 0.96
C[C@@H](c1nc2ccc(C(=O)NC(C)(C)C)cc2[nH]1)[C@H]1CC[C@@H](c2ccnc3ccc(F)cc32)CC1 [Example 3] | 74.5
C[C@@H](c1nc2ccc(C(=O)NC3CCCCC3)cc2[nH]1)[C@H]1CC[C@@H](c2ccnc3ccc(F)cc32)CC1 [Example 6] | 40.2
C[C@@H](c1nc2c(F)c(F)c(F)cc2[nH]1)[C@H]1CC[C@@H](c2ccnc3ccc(F)cc32)CC1 [Example 29, reference compound] | 0.85
C[C@@H](c1nc2ccc(C(=O)Nc3ccccc3)cc2[nH]1)[C@H]1CC[C@H](c2ccnc3ccc(F)cc32)CC1 [Example 15] | 86.7
CONC(=O)c1ccc2nc(C(C)[C@H]3CC[C@@H](c4ccnc5ccc(F)cc54)CC3)[nH]c2c1 (some centres unmarked) [Example 7] | 470
Cc1cc(C(=O)NC2CCC2)cc2nc(C(C)[C@H]3CC[C@@H](c4ccnc5ccc(F)cc54)CC3)[nH]c12 (some centres unmarked) [Example 10] | 27.1
CC(c1nc2cc(C(=O)NC3CC3)c(F)cc2[nH]1)[C@H]1CC[C@@H](c2ccnc3ccc(F)cc32)CC1 (some centres unmarked) [Example 20] | 6.9

a. C[C@@H](c1nc2cc(C(=O)NC3CCC3)ccc2[nH]1)[C@H]1CC[C@@H](c2ccnc3ccc(F)cc32)CC1 [Example 4]
b. CNC(=O)c1ccc2[nH]c(C(C)[C@H]3CC[C@@H](c4ccnc5ccc(F)cc54)CC3)nc2c1 (some centres unmarked) [Example 1]
Asked: Of a and b , which one carries the higher reported EC50? Write down the label of the entry you select.
Given back: b
